TARGET: mouse melanocortin-3 receptor (mouse, UniProt P33033 1-323)
Sequence (P33033 whole entry): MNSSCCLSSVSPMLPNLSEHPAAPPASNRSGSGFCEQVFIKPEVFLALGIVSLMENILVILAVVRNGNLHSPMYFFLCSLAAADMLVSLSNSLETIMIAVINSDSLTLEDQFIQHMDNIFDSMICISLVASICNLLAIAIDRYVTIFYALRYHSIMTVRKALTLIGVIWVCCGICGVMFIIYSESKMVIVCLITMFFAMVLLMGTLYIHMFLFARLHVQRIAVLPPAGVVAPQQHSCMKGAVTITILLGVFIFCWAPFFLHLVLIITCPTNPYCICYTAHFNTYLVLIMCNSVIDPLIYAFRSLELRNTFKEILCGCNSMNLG
ASSAY: cell-based or functional assay
Square brackets hold non-standard residues; d marks the D form.
This listing pairs binders with measured antagonist pA2 (Schild, agonist NDP-MSH).

Guide cases for antagonist pA2 (Schild, agonist NDP-MSH), answers given:
cyclo(PRFFNGF[dP]) (SMILES N=C(N)NCCC[C@@H]1NC(=O)[C@@H]2CCCN2C(=O)[C@H]2CCCN2C(=O)[C@H](Cc2ccccc2)NC(=O)CNC(=O)[C@H](CC(N)=O)NC(=O)[C@H](Cc2ccccc2)NC(=O)[C@H](Cc2ccccc2)NC1=O) [c[Pro-Arg-Phe-Phe-Asn-Gly-Phe-DPro]]
< 5.5
cyclo(PRFFNEF[dP]) (SMILES N=C(N)NCCC[C@@H]1NC(=O)[C@@H]2CCCN2C(=O)[C@H]2CCCN2C(=O)[C@H](Cc2ccccc2)NC(=O)[C@H](CCC(=O)O)NC(=O)[C@H](CC(N)=O)NC(=O)[C@H](Cc2ccccc2)NC(=O)[C@H](Cc2ccccc2)NC1=O) [c[Pro-Arg-Phe-Phe-Asn-Glu-Phe-DPro]]
< 5.5

In the following, a different binder is considered.
Prompt line: Tell me the measured antagonist pA2 (Schild, agonist NDP-MSH) of cyclo(PRFFFAF[dP]) (SMILES C[C@@H]1NC(=O)[C@H](Cc2ccccc2)NC(=O)[C@H](Cc2ccccc2)NC(=O)[C@H](Cc2ccccc2)NC(=O)[C@H](CCCNC(=N)N)NC(=O)[C@@H]2CCCN2C(=O)[C@H]2CCCN2C(=O)[C@H](Cc2ccccc2)NC1=O) [c[Pro-Arg-Phe-Phe-Phe-Ala-Phe-DPro]] , please.
Response line: < 5.5

// data source = patent US20200115416A1
